# inhibition at 12.5 µM annotations
Target: TTX resistant Na channel of human SNS-expressing cell (SNS) (Homo sapiens, UniProt Q9Y5Y9)
Sequence (Q9Y5Y9 whole entry, looked up): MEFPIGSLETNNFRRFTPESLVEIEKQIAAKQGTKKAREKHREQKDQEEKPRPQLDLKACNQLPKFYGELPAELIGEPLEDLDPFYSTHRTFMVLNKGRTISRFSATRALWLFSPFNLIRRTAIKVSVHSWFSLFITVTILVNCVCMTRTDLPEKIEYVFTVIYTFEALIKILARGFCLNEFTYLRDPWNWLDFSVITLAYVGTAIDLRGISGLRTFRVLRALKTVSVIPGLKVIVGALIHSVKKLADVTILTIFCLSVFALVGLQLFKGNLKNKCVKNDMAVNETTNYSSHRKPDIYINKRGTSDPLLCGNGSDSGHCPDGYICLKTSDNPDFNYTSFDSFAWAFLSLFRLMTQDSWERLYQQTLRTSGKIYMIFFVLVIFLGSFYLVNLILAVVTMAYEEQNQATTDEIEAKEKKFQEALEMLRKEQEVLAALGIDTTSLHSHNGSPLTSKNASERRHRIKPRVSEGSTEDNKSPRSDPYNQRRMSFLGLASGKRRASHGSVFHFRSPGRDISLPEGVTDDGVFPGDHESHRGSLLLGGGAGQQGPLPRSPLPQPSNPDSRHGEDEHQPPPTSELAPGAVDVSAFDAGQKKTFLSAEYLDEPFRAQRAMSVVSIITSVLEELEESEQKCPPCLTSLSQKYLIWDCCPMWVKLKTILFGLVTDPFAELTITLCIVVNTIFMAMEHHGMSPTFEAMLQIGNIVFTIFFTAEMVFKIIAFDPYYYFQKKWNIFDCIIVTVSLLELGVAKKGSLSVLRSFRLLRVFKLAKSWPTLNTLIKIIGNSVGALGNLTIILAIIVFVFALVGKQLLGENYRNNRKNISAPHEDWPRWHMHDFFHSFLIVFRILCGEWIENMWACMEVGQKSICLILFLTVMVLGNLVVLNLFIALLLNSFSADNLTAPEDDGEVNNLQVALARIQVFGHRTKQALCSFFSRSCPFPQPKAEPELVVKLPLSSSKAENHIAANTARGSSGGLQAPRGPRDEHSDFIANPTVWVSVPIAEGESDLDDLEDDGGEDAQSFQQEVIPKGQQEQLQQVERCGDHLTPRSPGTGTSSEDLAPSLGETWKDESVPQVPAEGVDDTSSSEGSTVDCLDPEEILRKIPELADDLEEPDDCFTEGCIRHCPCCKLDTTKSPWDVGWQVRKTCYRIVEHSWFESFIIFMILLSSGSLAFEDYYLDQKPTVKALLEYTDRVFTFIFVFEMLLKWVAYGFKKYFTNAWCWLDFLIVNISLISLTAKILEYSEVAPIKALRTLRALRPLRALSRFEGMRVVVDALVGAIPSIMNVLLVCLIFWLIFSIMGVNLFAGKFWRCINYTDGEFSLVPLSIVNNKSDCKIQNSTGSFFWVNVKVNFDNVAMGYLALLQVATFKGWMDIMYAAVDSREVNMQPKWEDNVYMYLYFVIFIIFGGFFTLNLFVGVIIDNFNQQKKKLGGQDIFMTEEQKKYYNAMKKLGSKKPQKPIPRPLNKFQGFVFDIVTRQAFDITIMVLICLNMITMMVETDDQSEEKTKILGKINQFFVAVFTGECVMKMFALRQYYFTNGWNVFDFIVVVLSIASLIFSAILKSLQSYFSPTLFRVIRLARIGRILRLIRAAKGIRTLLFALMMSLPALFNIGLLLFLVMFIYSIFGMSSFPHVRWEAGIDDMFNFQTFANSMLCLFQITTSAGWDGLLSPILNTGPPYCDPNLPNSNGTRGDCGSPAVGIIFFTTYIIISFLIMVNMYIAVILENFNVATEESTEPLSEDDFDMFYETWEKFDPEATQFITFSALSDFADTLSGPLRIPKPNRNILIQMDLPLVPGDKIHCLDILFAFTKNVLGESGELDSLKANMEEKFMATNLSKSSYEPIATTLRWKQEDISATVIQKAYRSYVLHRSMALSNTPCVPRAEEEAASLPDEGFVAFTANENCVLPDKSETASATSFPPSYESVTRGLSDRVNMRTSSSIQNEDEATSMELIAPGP
Test: cell-based
Settings: CHO-K1, compound concentration 12.5 μM; read-out: SNS inhibitory rate (%)

Structure Smiles: COCCCn1c(CN[C@@H](C)C(N)=O)nc2ccc(Oc3ccc(C)cc3)cc21
Assayed Target: TTX resistant Na channel of human SNS-expressing cell (SNS) (Homo sapiens, UniProt Q9Y5Y9)
Unit Of Measure: %
inhibition at 12.5 µM: 56.9
//
Structure Smiles: C[C@H](NCc1nc2ccc(Oc3ccccc3)cc2n1C[C@H]1CCCO1)C(N)=O
Assayed Target: TTX resistant Na channel of human SNS-expressing cell (SNS) (Homo sapiens, UniProt Q9Y5Y9)
Unit Of Measure: %
inhibition at 12.5 µM: 7.2
//
Structure Smiles: CCOCCn1c(CNC(C)(C)C(N)=O)nc2ccc(-c3ccc(F)cc3)cc21
Assayed Target: TTX resistant Na channel of human SNS-expressing cell (SNS) (Homo sapiens, UniProt Q9Y5Y9)
Unit Of Measure: %
inhibition at 12.5 µM: 30.6
//
Structure Smiles: CCOCCn1c(CN[C@@H](C)C(N)=O)nc2ccc(OCc3ccc(F)cc3)cc21
Assayed Target: TTX resistant Na channel of human SNS-expressing cell (SNS) (Homo sapiens, UniProt Q9Y5Y9)
Unit Of Measure: %
inhibition at 12.5 µM: 22.2
//
Structure Smiles: CCOCCn1c(CN[C@@H](CC)C(N)=O)nc2ccc(-c3ccc(C)c(C)c3)cc21
Assayed Target: TTX resistant Na channel of human SNS-expressing cell (SNS) (Homo sapiens, UniProt Q9Y5Y9)
Unit Of Measure: %
inhibition at 12.5 µM: 36.5
//
Structure Smiles: CCOCCn1c(CN[C@@H](C)C(N)=O)nc2ccc(OCc3ccccc3)cc21
Assayed Target: TTX resistant Na channel of human SNS-expressing cell (SNS) (Homo sapiens, UniProt Q9Y5Y9)
Unit Of Measure: %
inhibition at 12.5 µM: 18.8
//
Structure Smiles: NC(=O)[C@@H]1CCCN1Cc1nc2ccc(Oc3ccccc3)cc2n1CC1CCOCC1
Assayed Target: TTX resistant Na channel of human SNS-expressing cell (SNS) (Homo sapiens, UniProt Q9Y5Y9)
Unit Of Measure: %
inhibition at 12.5 µM: 96.2
//
Structure Smiles: Cc1ccc(Oc2ccc3nc(CN[C@@H](C)C(N)=O)n(C4CCOCC4)c3c2)cc1
Assayed Target: TTX resistant Na channel of human SNS-expressing cell (SNS) (Homo sapiens, UniProt Q9Y5Y9)
Unit Of Measure: %
inhibition at 12.5 µM: 90.3
//
Structure Smiles: CCOCCn1c(CNC(C)(C)C(N)=O)nc2ccc(Oc3cccc(Cl)c3)cc21
Assayed Target: TTX resistant Na channel of human SNS-expressing cell (SNS) (Homo sapiens, UniProt Q9Y5Y9)
Unit Of Measure: %
inhibition at 12.5 µM: 31.5
//
Structure Smiles: CCOCCn1c(CN[C@@H](C)C(N)=O)nc2cc(Cl)c(-c3ccc(F)cc3F)cc21
Assayed Target: TTX resistant Na channel of human SNS-expressing cell (SNS) (Homo sapiens, UniProt Q9Y5Y9)
Unit Of Measure: %
inhibition at 12.5 µM: 67.4
